Biological target: dopamine transporter (UniProt P23977)
Type: binding
Conditions: read-out: DA IC50 for inhibition of radioligand binding; DA=[3H]WIN 35,428
From the text: Illustrative in vitro assays for binding are described in Boja et al Ann. NY Acad. Sci. 654:282-291 (1992), which is incorporated herein by reference in its entirety. […] Alternatively, the compounds may be analyzed by their ability to inhibit reuptake of a labelled neurotransmitter in a sample, in particular, in synaptosomes.
# IC50 values compiled below

| Molecule | IC50 / nM |
| --- | --- |
| CN1C2CCC1C(C(=O)N1CCCCOCC1)C(c1ccc(Cl)cc1)C2 (stereo not drawn) [RTI-4229-214] | 2.9 |
| Cc1ccc(C2CC3CCC(C2C(C)C)N3C)cc1 (stereo not drawn) [RTI-4229-239] | 0.61 |
| COC(=O)[C@@H]1C2CCC(C[C@@H]1c1ccc(Cl)c(C)c1)N2C (stereo partly drawn) [RTI-4229-112] | 0.82 |
| COC(=O)C1C2CCC(CC1c1ccc(C(C)C)cc1)N2 (stereo not drawn) [RTI-4229-330] | 310 |
| CN1C2CCC1C(C(=O)Oc1ccccc1)C(c1ccc([N+](=O)[O-])cc1)C2 (stereo not drawn) [RTI-4229-277] | 5.94 |
| CN1C2CCC1C(C(=O)Oc1ccccc1)C(c1ccc(Cl)cc1)C2 (stereo not drawn) [RTI-4229-113] | 1.98 |
